- Test system: L1210 leukemia ip in BDF1 mice, survival T/C
- Method summary: NCI In Vivo Anticancer Drug Screen. Data for tumor model L1210 Leukemia (intraperitoneal) in B6D2F1 (BDF1) mice
- Assay context: endpoint: mean survival time; dose: 200.0 mg/kg/injection; schedule: Q01DX001 (ip); vehicle: saline with Tween-80; higher = longer survival
Toxic doses and inconclusive results are not listed.
Assign T/C to each entry below.

Reported T/C, compound O=C(OCCCC(C(=O)c1ccccc1)=P(c1ccccc1)(c1ccccc1)c1ccccc1)c1ccccc1 : ____
93 % of control

Reported T/C, compound O=[N+]([O-])c1ccc(Oc2ccc(Cl)cc2Cl)c([N+](=O)[O-])c1 : ____
94 % of control

Reported T/C, compound O=C(O)c1c(F)c(F)c(-c2c(F)c(F)c(C(=O)O)c(F)c2F)c(F)c1F : ____
95 % of control

Reported T/C, compound CCCCCCCCCCC(CCCCCC)C(=O)O (stereo not given) : ____
96 % of control

Reported T/C, compound C=CC1CN2CCC1CC2C(O)c1ccnc2ccc(OC)cc12 (stereo not given) (tested in a mixture with another compound) : ____
96 % of control

###

- Tested on: L1210 leukemia ip in BDF1 mice, survival T/C
- Method summary: NCI In Vivo Anticancer Drug Screen. Data for tumor model L1210 Leukemia (intraperitoneal) in B6D2F1 (BDF1) mice
- Assay context: endpoint: mean survival time; dose: 100.0 mg/kg/injection; schedule: Q04DX002 (ip); vehicle: saline; higher = longer survival
Toxic doses and inconclusive results are not listed.
Quantity kind: T/C

Reported T/C, compound Cc1ccc(C(=O)N/N=C/c2ccc(N(C)C)cc2Cl)cc1 : ____
105 % of control

Reported T/C, compound NCCN=C(N)C(N)=NCCN : ____
100 % of control

Reported T/C, compound CC(C)(C)CNC(C)(C)C : ____
104 % of control

Reported T/C, compound CN(C)/C=C1\CCOC1=O : ____
101 % of control

Reported T/C, compound O=C(O)C1CCC1C(=O)O (configuration not stated) : ____
90 % of control

Reported T/C, compound O=S(=O)(Nc1cc(C(F)(F)F)ccc1Cl)c1ccc(Cl)cc1 : ____
90 % of control

Reported T/C, compound COc1ccc(NC(C)=O)cc1OC : ____
95 % of control

Reported T/C, compound Cc1cc(=O)[nH]c(NCCCC(N)C(=O)O)n1 (configuration not stated) : ____
104 % of control

Reported T/C, compound CNC(=S)Nc1ccc(C)c(Cl)c1 : ____
104 % of control

Reported T/C, compound NC(CCO)C(=O)O (configuration not stated) : ____
96 % of control

Reported T/C, compound Cc1ccc(S(=O)(=O)N2CC(O)C(O)C2Cn2cnc3c(N)ncnc32)cc1 (configuration not stated) : ____
102 % of control

Reported T/C, compound CCCCCCCCCCCCC(=O)N1CCCCC1 : ____
91 % of control

###

- Test system: L1210 leukemia ip in BDF1 mice, survival T/C
- Method summary: NCI In Vivo Anticancer Drug Screen. Data for tumor model L1210 Leukemia (intraperitoneal) in B6D2F1 (BDF1) mice
- Assay context: endpoint: mean survival time; dose: 100.0 mg/kg/injection; schedule: Q01DX009 (ip); vehicle: saline sonified; higher = longer survival
Inconclusive results and toxic doses are left out.
Quantity kind: T/C

Reported T/C, molecule COc1ccc(/C=C2\SC(=S)NC2=O)cc1OC : ____
96 % of control

Reported T/C, molecule c1ccc(C(NC2CC3CCC2C3)c2ccccc2)cc1 (stereo not given) : ____
95 % of control

Reported T/C, molecule O=C(COCc1ccccc1)OCc1ccccc1 : ____
100 % of control

Reported T/C, molecule NC(C(=O)O)C(=O)c1ccccc1 (stereo not given) : ____
101 % of control

Reported T/C, molecule COc1ccc(S(=O)(=O)NCCC#N)cc1NC(C)=O : ____
96 % of control

These measurements were taken from PubChem BioAssay AID248.
